Origin of measurements: PubChem BioAssay (NCATS)

target: Cytochrome P450 2D6 (Homo sapiens); experiment: Cytochrome P450 family 2 subfamily D member 6 (CYP2D6) small molecule antagonists: luciferase biochemical (cell-free) qHTS assay (AID 1645840); settings: P450-Glo CYP2D6 enzyme, luciferin luminescence, 1 h; series mostly up to 57.4 µM; also: nearly all actives have a fitted effect of over 55% in size
Inconclusive results are not listed. Activity calls are given as the source filed them. Calls follow the shape of the dose curve; as a rule, active = well fitted inhibition curve with a large enough effect in the repeat runs; inconclusive = weak or mixed curves; inactive = flat fitted curve, though single readings scatter.
# output must be one of yes (1) for active, no (0) for inactive

These solved cases illustrate the format of a correct answer.
compound	class label
CN[C@H](CC(C)C)C(=O)N[C@H]1C(=O)N[C@@H](CC(N)=O)C(=O)N[C@H]2C(=O)N[C@H]3C(=O)N[C@H](C(=O)N[C@H](C(=O)O)c4cc(O)cc(O)c4-c4cc3ccc4O)[C@H](O)c3ccc(c(Cl)c3)Oc3cc2cc(c3O[C@@H]2OC(CO)[C@@H](O)[C@H](O)[C@@H]2O[C@H]2C[C@](C)(N)[C@H](O)[C@H](C)O2)Oc2ccc(cc2Cl)[C@H]1O (stereo partly specified)	no (0)
COC(=O)c1c(-c2ccc(Cl)cc2)noc1N1CCN(c2ccccc2OC)CC1	no (0)
CCOc1ccc(-c2nonc2NC(=O)c2oc3c(C)c(C)ccc3c2C)cc1OCC	no (0)
CCOC(=O)c1ccc(NC(=O)c2cc(=O)c3ccc(C)c(C)c3o2)cc1	no (0)
O=C(CSc1nc2ccsc2c(=O)n1Cc1ccccc1F)NCc1ccccc1Cl	yes (1)

Short answer needed: outcome of this test for CCCOCc1cc(CN2CCN(c3ccccc3OC)CC2)c(O)c2ncccc12 ?
yes (1)

For CCCCC[C@H](O)CC[C@@H]1[C@H]2Cc3cccc(OCC(=O)O)c3C[C@H]2C[C@H]1O , what call appears in the results of this test?
no (0)

Lab log entry: Cc1ccc(NC(=O)CSc2nc3ccccc3c3nc(CCn4cncc4C)nn23)cc1F — outcome as called in the assay?
yes (1)

Lab log entry: Cc1oc(-c2cccc(Cl)c2)nc1Cn1c(SCc2ccccc2F)nc2ccncc21 — outcome as called in the assay?
yes (1)

Please indicate how the test categorized COc1ccc(CNC(=O)C(=O)Nc2c3c(nn2-c2ccccc2)CSC3)cc1 .
no (0)

Per the assay record, what outcome was assigned to Nc1ccn(C2O[C@H](CO)[C@@H](O)[C@@H]2O)c(=O)n1 (stereo partly specified) ?
no (0)
